experiment: inhibitors of E-selectin induction by TNFa, primary screen, imaging, HUVEC, immunofluorescence, MLSMR starter and 10KST1 sets (AID 487); settings: HUVEC TNFalpha-induced E-selectin immunofluorescence imaging, at 2 µM; stronger effect = higher value;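 as to inhibition: signal is fraction of cell area covered by stained E-selectin grains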
METRIC: inhibition (%)
Give just the number in %; leave the unit off.

// solved cases for inhibition follow
Cc1ccc(OCC(=O)N2CCC(N3CCCCCC3)CC2)cc1 | -349
CC(C)COc1nc2ccccc2nc1C(C#N)C(=O)NC1CCCCC1 (stereo not given) | -27.9
Cc1ccc(N2C(=O)C3ON(c4ccccc4)C(c4ccncc4)C3C2=O)c(C)c1 (stereo not given) | -152
CC1(C)CC(=O)C2=C(C1)N(Cc1ccco1)C(=O)C2(NC(=O)c1cccnc1)C(F)(F)F (stereo not given) | -131

Could you now consider this next compound?
Name the recorded inhibition of the compound listed here: CN1CCN(CCC(=O)N2c3ccccc3Sc3ccc(Cl)cc32)CC1 -122

* * *

experiment: inhibitors of E-selectin induction by TNFa, primary screen, imaging, HUVEC, immunofluorescence, MLSMR starter and 10KST1 sets (AID 487); details: HUVEC TNFalpha-induced E-selectin immunofluorescence imaging, at 2 µM; measured here: cell number, toxicity;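 as to nuclei count: 100% = median nuclei count of all wells on the same plate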
METRIC: nuclei count (%)
Quick reminder: number only, in %, skip the unit.

CCOC(=O)CNS(=O)(=O)c1cc(-c2nn(C)c(=O)c3ccccc23)ccc1C | 144
CCCC(CCC)C(=O)OC1C[C@H]2CC[C@@H](C1)[N+]2(C)C (stereo partly drawn) | 132
CC[N+](C)(CC)CCOC(=O)C(O)(c1ccccc1)C1CCCCC1 (stereo not drawn) | 111
CC(C)(C)C1CCC2(CC1)C(C#N)=C(SCC(=O)Nc1ccccc1)NC(=O)C2C#N (stereo not drawn) | 85.7
COc1ccccc1N1CCN(CC(O)COc2cccc3ccccc23)CC1 (stereo not drawn) | 107
COCCOC(=O)c1c(C)nc(SCC(=O)Nc2ccc(C)cc2)c(C#N)c1-c1ccco1 | 124

Return reported nuclei count. Input molecule: CCN1CCc2c(C#N)c(N3CCOCC3)nc(NCCO)c2C1 151

State, in one line, measured nuclei count of COc1ccc(C2C(C#N)=C(N)Oc3n[nH]c(C)c32)cc1CSc1ccccn1 (stereo not drawn) 168

Identify measured nuclei count associated with CCN(CC)c1ccc2cc(-c3nnc(-c4ccncc4)o3)c(=O)oc2c1 137

Tell me nuclei count reported for CC1(c2ccco2)NC(=O)NC1=O (stereo not drawn) 160

Find the measured nuclei count of CC(=O)c1cc(C#N)c(SCc2ccncc2)nc1C and report it. 122

Quick one: give measured nuclei count for O=C(Nc1ccc2c(c1)OCO2)c1cncc(Br)c1 149

* * *

test: inhibitors of TNFa-induced NFkB p65 translocation, primary screen, imaging, HUVEC, MLSMR starter and 10KST1 sets (AID 438); conditions: HUVEC TNFa-induced p65 nuclear translocation; measured here: nuclei count (cytotoxicity indicator), at 2.08 µM;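 also: compound added about 3h40 before a 20 min TNFalpha stimulation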
Classify by measured cell count: satisfied if it is equal to or exceeds 500, not satisfied if it is smaller.

CCOc1cc(CN2CCOCC2)cc(C(C)=O)c1 | satisfied

Textbook exercise: given the entry CN(C)CCCN1c2ccccc2Sc2ccc(Cl)cc21 , state whether its cell count is greater than or equal to 500. satisfied

Textbook exercise: given the entry O=C(O)CC(SCc1ccc(C(=O)O)o1)C(=O)O (stereo unspecified) , state whether its cell count is greater than or equal to 500. not satisfied

hey, is cell count for this one >= 500? CC(=O)C1=C(O)C(=O)N(c2cccc(C(=O)O)c2)C1c1ccc(F)cc1 (stereo unspecified) satisfied

Reported cell count at or above 500? CCOC(=O)c1c(C)cccc1OCC(N)=O satisfied

Has COC(=O)CCC(=O)CN a recorded cell count greater than or equal to 500? not satisfied

Tell me whether cell count is at least 500 here: COc1cccc(-c2nc(NCc3ccco3)c3ccccc3n2)c1O satisfied

Reported cell count at or above 500? CN/C(=C/[N+](=O)[O-])NCCSCc1ccc(CN(C)C)o1 satisfied

Hi, just wondering whether CCOc1ccc(C2=Nn3c(nnc3-c3cccnc3)SC2)cc1 shows cell count of 500 or higher. satisfied
